# Test system: MS2 coat protein
# protocolDetails: apparent KD of MS2 coat protein; designed switch direction (-1 OFF switch, 1 ON switch): -1; higher = weaker reporter binding
# runConditions: input ligand: none
Overview of reported apparent KD of MS2 coat protein across a group of sequences:
The figure you give is taken to be in nM; do not add the unit.

UGAUCACAUGAGGAUCACCCAUGUCAGGAUAUCUACAUUGAAGCCUCGGCUUCAAUGUAGAGAAGGGACAUAAU [E1/3-B2] (Eterna round: R97, puzzle: Exclusion 1) : 71.1
CAUGUGCGAAAGGAUAUGGCCCGCGGAUCAGCUCCAGAAGGUUCGACAUGAGGAUCACCCAUGUGAUCUGGUAA [Eternabot (L1) Solution 61] (Eterna round: R97, puzzle: Exclusion 6) : 369
GUGACUCAGCAGGAUAUACGCGCGAGUGCGUAAGUAGAAGGGUUGACAUGAGGAUCACCCAUGUAGAACCACAC [Eternabot (L2) Solution 18] (Eterna round: R97, puzzle: Exclusion 6) : 18.4
UUAGAUAGGUCAGGAUAUCGAUGAUUGAAUUGUAUGAUUUACAUGAGGAUCACCCAUGUUUUGUACGAGAAGGGACGUUAGAUU [JR_ExcNG2_Sub018] (Eterna round: R96, puzzle: Exclusion NG 2) : 37.2
AAUACCCUGUUAGGAUAUAAUACCGAAGGAGUAUUAGAAGGGACAGUAAGGUACAUGAGGAUCACCCAUGUGAGAAUCUGUGCC [Edanxeve] (Eterna round: R96, puzzle: Exclusion NG 1) : 75.4

Query string: So what does the record say about apparent KD of MS2 coat protein for AGUGUGUGGCAGGAUAUGCAAUUAAUAGGUGAAGCAGAAGGGUCUACAUGAGGAUCACCCAUGUGUGCGGUUGA [Ex6 #22] (Eterna round: R97, puzzle: Exclusion 6) ?
Result string: 139

Query string: Note, next up: GGGCCCGGUGUGAGGAUAUGCCCGGGUAAACCCGGGUAGAAGGCACAUGAGGAUCACCCAUGUAAGCCGGGCCC [-43, -40.9 kcal, A 23%, 5cbis-0] (Eterna round: R97, puzzle: Brourd's mod of Exclusion 4)
Result string: 17.7

Query string: And then AAUUAUUGAUGAGGAUAUUGUGGUGAAACACGACAAGAAGGCAUUUUUCACAUGAGGAUCACCCAUGUGAGCCUUGUGCAUAUA [Ex NG1 #62] (Eterna round: R96, puzzle: Exclusion NG 1) , what is it?
Result string: 15.2

Query string: Okay, and GUCAUCAAACAUGGGAUAAACAUGAGGAUCACCCAUGUAUACAAGUUUUUUGCUCGUCUUAUAAUAAGUUUGAUGAC [Antenna 6 - Jieux - Sensor, turn-off variant 1] (Eterna round: R97, puzzle: Sensor, turn-off variant 1) ?
Result string: 15.3

Query string: Consider next the sequence GUUGCUACUGAGGAUAUUAUACUACCCGACUGAUAAGAAGGCAGUACAUGAGGAUCACCCAUGUGGGUAGCCAC [Polaris13] (Eterna round: R97, puzzle: Exclusion 6) in the same way.
Result string: 21.7

Query string: Would you mind doing CCGUAACAUGAGGAUCACCCAUGUUAGGAUAUGUAGCGCUGGGCAUCCUCAGCUGGUUAUAGAAGGGACGAGGG [Eternabot (L2) Solution 15] (Eterna round: R97, puzzle: Exclusion 1) as well?
Result string: 111

Query string: Same read-out for GCUAGAGCAGGAUAUCUAAAUCCUCACAUGAGGAUCACCCAUGUAGUCGAAAGACUAAGAAGAGAAGGGCUCUAGC [Omei Ex5 E19] (Eterna round: R97, puzzle: Exclusion 5) ?
Result string: 1290

Query string: Another sequence to check: CUCAAGUUAGGAUAUCCAAACGACACGUGCGGACGUUCAACGGAGAAGGGACUUGAGGAUCACCCAAGUUAAAA [Riusbireis] (Eterna round: R97, puzzle: Exclusion 4)
Result string: 45

Query string: Param item: AACCUAAGGCAUAGCUUUAGGUUUACAUGAGGAUCACCCAUGUAGGAUAUGGUAGGCAUAGCUUACCAGAAGGACAUGAAAAUU [Mat - Exclusion NG 3 - Mod of JL - D31] (Eterna round: R96, puzzle: Exclusion NG 3)
Result string: 46.1

Query string: Another sequence to look at: GUCGUGCGGCUGUGCUGUACGAGUACAUGAGGAUCACCCAUGUAGGAUAUGGUUCGUUUUGCGUGCUAGAAGGGCGUGCGUUUU [Excl-NG3-LRO17] (Eterna round: R96, puzzle: Exclusion NG 3)
Result string: 21.4

Query string: // same read-out, input: CUGCUGGAGCGUCGCUUUGGUCGUACAUGAGGAUCACCCAUGUAGGAUAUGGUAAAAUUCGCCUGCUAGAAGGAUAGAGUGGUC [salish99_ExNG3_r04_618] (Eterna round: R96, puzzle: Exclusion NG 3)
Result string: 78.9

Query string: Would you kindly repeat that for CUAGUAUAUCAGGAUAUGAUUUUGUGUAGUUAAUCAGAAGGGAUGACAUGAGGAUCACCCAUGUUAAGGGAUGA [JR_Ex6_Sub046] (Eterna round: R97, puzzle: Exclusion 6) ?
Result string: 83.3

Query string: What about UUUUUAUAUGAAGGAUAUACUUAACAUGAGGAUCACCCAUGUGGUGUUGUGAGUGAGUGAGUUUAGUAGAAGGUCAACGAUUUU [JMF's solution 58] (Eterna round: R96, puzzle: Exclusion NG 2) ?
Result string: 421
